The values you see were collected from PubChem BioAssay (NCATS).

tested on: KB-3-1; experiment: Cytotoxic Profiling of Annotated Libraries Using Quantitative High-Throughput Screening (AID 1296008); conditions: Five cell lines viability, CellTiter-Glo ATP luminescence, 48-72 h; stronger effect = lower value; further: on the % scale 0 is the no-effect control and ±100 the full control effect; nearly all actives have a fitted effect of over 60% in size
Records with an inconclusive call do not appear.
endpoint: max response (%)
Unit % implied. Number only.

1. N#Cc1ccc(NC(=O)Nc2ccccc2Br)c2n[nH]nc12	1.71
2. CCC(CC)[C@H](NC(C)=O)[C@@H]1[C@H](O)[C@@H](C(=O)O)C[C@@H]1N=C(N)N	7.98
3. O=C(Nc1cc(Cl)cc2c1[nH]c1cnccc12)c1cccnc1	-1.81
4. CC(C)(C)C(=O)Oc1ccc2c(c1)nc(NC(=O)c1cccc([N+](=O)[O-])c1)n2CCCO	7.62
5. Cc1[nH]c(C=C2C(=O)Nc3ccc(S(=O)(=O)Cc4c(Cl)cccc4Cl)cc32)c(C)c1C(=O)N1CCC[C@H]1CN1CCCC1	1.95

Exam item: Recall and state the measured max response for N[C@@]1(C(=O)O)CS(=O)(=O)[C@H]2[C@H](C(=O)O)[C@H]21 .
Marked response: -18.8

Exam item: Recall and state the measured max response for CC/C(=C(\c1ccccc1)c1ccc(OCCN(C)C)cc1)c1ccccc1 .
Marked response: -11

Exam item: Recall and state the measured max response for O=C(O)c1ccccc1C(=O)Nc1ccc(-c2ccccc2)cc1 .
Marked response: 9.98

Exam item: Recall and state the measured max response for Cc1ccc(C(=O)Nc2cccc(C(F)(F)F)c2)cc1Nc1nc(-c2cccnc2)nc2c1cnn2C .
Marked response: -14.6

Exam item: Recall and state the measured max response for CCOC(CN1C(=O)[C@](CC(=O)Nc2ccc(C)cc2)(NC(=O)Nc2ccc(C)cc2)c2ccccc21)OCC .
Marked response: -11

====

assay: Quantitative High-Throughput drug screen in 47 multiple myeloma cell lines against the NCATS MIPE library collection: AMO1_DSMZ cell viability assay (AID 1918927; further: nearly all actives have a fitted effect of over 30% in size); details: AMO1 myeloma cells viability, CellTiter-Glo ATP luminescence, 48 h; series mostly up to 45.8 µM
Results filed as inconclusive are left out. The source made the active and inactive calls. Calls follow the shape of the dose curve; as a rule, active = well fitted cell-killing curve with a large enough effect; inconclusive = small, poorly fitted or top-dose-only effect, or effect the other way; inactive = no such curve, though single readings can be large or run the other way.
Outcome field: choose from active, inactive

# example entries with known answers
1. O=C(O)c1ccc(-c2c[nH]c3ncc(-c4ccccc4)cc23)cc1C1CCCC1	active
2. CC(C)(C)COc1ccc(-n2cc(C(=O)O)cn2)cc1C#N	inactive
3. C=C1C(=O)OC(CCCCCCCC)C1C(=O)O (stereo unspecified)	inactive
4. CCOC(=O)O[C@]1(C(=O)OCCl)CC[C@@H]2[C@H]3CCC4=CC(=O)C=C[C@]4(C)[C@@H]3[C@@H](O)C[C@@]21C	inactive

Exam item: Hey, what did the test say about NS(=O)(=O)c1ccc(NC2=CC(=O)c3ccccc3C2=O)cc1 ?
Marked response: active

Exam item: Hey, what did the test say about CC=CC(=O)N(CC)c1ccccc1C ?
Marked response: inactive

====

# maps each entry to its remaining proliferation (% of control), lower = more inhibition
assay: qHTS profiling for inhibitors of Plasmodium falciparum (HB3) proliferation (AID 743324); conditions: Plasmodium falciparum HB3 blood-stage proliferation; at 28.7 µM (top of the series);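 further: 100% = DMSO vehicle wells and 0% = artemisinin-treated control wells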
Unit % implied. Number only.

Here are 7 compounds together with their reported answers.
1. CCOc1ccc(Nc2nc(-c3c(C)nc4ccccn34)cs2)cc1	7.43
2. COc1cc2ncnc(-n3nc(-c4ccccn4)nc3N)c2cc1OC	74
3. CCc1ccc(OCc2ccccc2C(=O)Nc2ccc3nc(C)cc(N)c3c2)cc1	0.0187
4. O=C(O)c1ccc(-c2cc3cccnc3c(-c3ccc4nonc4c3)n2)cc1	93.9
5. C[C@@H]1CCN(C(=O)CC#N)C[C@H]1N(C)c1ncnc2[nH]ccc12	56.2
6. N#Cc1ccc(NC(=O)Nc2ccccc2Br)c2n[nH]nc12	37.3
7. CCOC(CN1C(=O)[C@](CC(=O)Nc2ccc(C)cc2)(NC(=O)Nc2ccc(C)cc2)c2ccccc21)OCC	10.1

Proceed to the following item.
Exam item: Recall and state the measured remaining proliferation (% of control), lower = more inhibition for CC(C)(C)COc1ccc(-n2cc(C(=O)O)cn2)cc1C#N .
Marked response: 91.7
